Kindly supply the reported composite z-score values for the records listed here.
- Target System: Follistatin-related protein 3 (Homo sapiens) (UniProt O95633)
- Sequence (O95633 whole entry, looked up): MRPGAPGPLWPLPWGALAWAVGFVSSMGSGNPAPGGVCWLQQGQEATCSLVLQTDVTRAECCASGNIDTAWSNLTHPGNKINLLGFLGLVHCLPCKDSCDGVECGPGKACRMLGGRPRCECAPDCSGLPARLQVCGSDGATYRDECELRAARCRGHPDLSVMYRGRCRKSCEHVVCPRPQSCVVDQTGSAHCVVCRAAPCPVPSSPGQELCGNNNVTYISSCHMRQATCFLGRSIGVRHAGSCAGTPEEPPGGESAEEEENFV
- Protocol Details: FSTL3 binders on small-molecule microarrays, primary screen, biochemical, small-molecule microarray, 635 nm fluorescence (AID 1105);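 further: score merges emission near 667 nm and signal to noise per printed spot across three slides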
- Assay Conditions: FSTL3 binding, higher = more signal

Solved entries (count: 3):
Molecule: Cc1ccccc1C(O)C1C=CC2C(=O)N(C)C(=O)C2N1N1CCCCC1 (centres undefined)
composite z-score: 0.621

Molecule: CCCCCN1CC=CC23O[C@@H]4/C=C\CCC(C)OC(=O)C4[C@H]2C(=O)N(CCCCCO)[C@@H]3C1=O (some centres undefined)
composite z-score: -0.501

Molecule: [N-]=[N+]=NCc1ccccc1C[C@]1(C(=O)NCC(O)CO)N=C(c2ccc(OCCCO)cc2)O[C@H]1c1ccccc1N=[N+]=[N-] (some centres undefined)
composite z-score: -0.318

The recorded composite z-score for Cc1ccccc1C(O)C1C=CC2C(=O)N(C)C(=O)C2N1Nc1ccccc1 (centres undefined) is 0.304
